test system: MOLT-4 leukemia; assay: NCI tumour cell line growth inhibition, 48 h
# key: entry, value: GI50
MEASURED_QUANTITY: GI50

[[record]]
compound = "CC/C=C\\C[C@H](F)C/C=C1/C(=O)C=C[C@@H]1C/C=C\\CCCC(=O)OC"
measured_quantity = "GI50"
result = "1.45 µM"

[[record]]
compound = "COC1C(O)CC(OC2CC(OC3CC(O[C@@H]4C(=O)c5c(cc6cc(OC7CC(OC8CC(O)C(O)C(C)O8)C(O)C(C)O7)c(C)c(O)c6c5O)CC4[C@H](OC)C(=O)O)OC(C)C3O)OC(C)C2O)OC1C (some centres not stated)"
measured_quantity = "GI50"
result = "2.08 µM"

[[record]]
compound = "N#Cc1c(NCc2ccccc2)nc(NCc2ccccc2)c(C#N)c1-c1ccc(O)cc1"
measured_quantity = "GI50"
result = "20.4 µM"

[[record]]
compound = "COc1ccc(C=Nc2c(C(=O)Nc3cccc(Cl)c3C)sc3nc(C)c(C(=O)/C=C/c4ccc(OC)cc4)cc23)cc1"
measured_quantity = "GI50"
result = "3.68 µM"

[[record]]
compound = "Cc1c(-c2ccc(C3CCCCC3)cc2)nc2ccc(F)cc2c1C(=O)O"
measured_quantity = "GI50"
result = "0.0679 µM"

[[record]]
compound = "COc1cc(C(=O)O[C@H](C(=O)NCCCNC(=O)[C@@H](OC(=O)c2cc(OC)cc3c(C)cccc23)[C@]2(C)CO2)[C@]2(C)CO2)c2cccc(C)c2c1"
measured_quantity = "GI50"
result = "< 0.01 µM"

[[record]]
compound = "C=C1C(=O)O[C@H]2[C@H]1CC/C(COC(=O)NCc1c[nH]c3ccccc13)=C\\CC[C@@]1(C)O[C@@H]21"
measured_quantity = "GI50"
result = "2.71 µM"

[[record]]
compound = "CC1=CC(C)=NN=C(N)N1S(=O)(=O)c1cc(C)c(Cl)cc1SCc1ccccc1"
measured_quantity = "GI50"
result = "6.18 µM"

[[record]]
compound = "O=c1oc2ccc(I)cc2c(=O)n1-c1ccc(F)cc1F"
measured_quantity = "GI50"
result = "2.39 µM"

[[record]]
compound = "Cc1ccc2oc(=O)cc(/C(=C3/C=CC=N3)c3ccc[nH]3)c2c1"
measured_quantity = "GI50"
result = "0.378 µM"

[[record]]
compound = "CCOC(=O)/C=C(\\C(=O)OCC)n1ccc(=O)n(Cc2cnnn2CCCCOC(C)=O)c1=O"
measured_quantity = "GI50"
result = "2.23 µM"

[[record]]
compound = "Nc1c(C(=O)Nc2ccccc2)sc2nc3c(cc12)CCCCC3"
measured_quantity = "GI50"
result = "2.67 µM"

[[record]]
compound = "O=C1/C(=C/c2ccccc2)CN(C(=O)C(Cl)Cl)C/C1=C\\c1ccccc1"
measured_quantity = "GI50"
result = "0.369 µM"

[[record]]
compound = "NC(=NCc1ccccc1)C(N=Nc1ccccc1)C(=O)NCc1ccccc1 (configuration not stated)"
measured_quantity = "GI50"
result = "5.53 µM"

[[record]]
compound = "COC(=O)c1ccc2c(c1)C(=O)c1c-2n(CCCCl)c(=O)c2cc([N+](=O)[O-])ccc12"
measured_quantity = "GI50"
result = "26 µM"

[[record]]
compound = "O=C(CC1(O)C(=O)N(Cc2ccccc2)c2ccc(Cl)cc21)c1ccc(C(=O)NCC2CCC3(CC2)OOC2(CCCCC2)OO3)cc1 (configuration not stated)"
measured_quantity = "GI50"
result = "1.59 µM"

[[record]]
compound = "CSC(=NC#N)S/C=C/C(=O)c1ccccc1"
measured_quantity = "GI50"
result = "22.6 µM"

[[record]]
compound = "CCN1CCC(Nc2ccnc3cc(Cl)ccc23)CC1"
measured_quantity = "GI50"
result = "18.5 µM"

[[record]]
compound = "CN(C)CCCN(CCC1CCCCC1)CCC1CCCCC1"
measured_quantity = "GI50"
result = "1.85 µM"

[[record]]
compound = "CCCc1n(Cc2ccc3ccccc3c2)cc[n+]1Cc1ccc2ccccc2c1"
measured_quantity = "GI50"
result = "1.46 µM"

[[record]]
compound = "CCC[CH2][Sn]([CH2]CCC)([O]c1cccc2cccnc12)[O]c1cccc2cccnc12"
measured_quantity = "GI50"
result = "0.159 µM"

[[record]]
compound = "Cc1nc2c(c(N3CCCc4ccccc43)n1)CCC2"
measured_quantity = "GI50"
result = "< 0.01 µM"

